Bridge positions count the residues as written; N and C are the ends. Square brackets hold non-standard residues; d marks the D form. Peptide text beside a SMILES is read from it. * marks the point of attachment. Trp(6-Cl) = N[C@@H](Cc1c[nH]c2cc(Cl)ccc12)C(=O)O; R8 = C=CCCCCCC[C@@](C)(N)C(=O)O; S5 = C=CCCC[C@](C)(N)C(=O)O; X1 = COCCOCCOCCOC(=O)*; Ac3c = NC1(C(=O)O)CC1
Entries with reported IC50 on HDMx (Homo sapiens, UniProt O15151)
Sequence (O15151 whole entry, looked up): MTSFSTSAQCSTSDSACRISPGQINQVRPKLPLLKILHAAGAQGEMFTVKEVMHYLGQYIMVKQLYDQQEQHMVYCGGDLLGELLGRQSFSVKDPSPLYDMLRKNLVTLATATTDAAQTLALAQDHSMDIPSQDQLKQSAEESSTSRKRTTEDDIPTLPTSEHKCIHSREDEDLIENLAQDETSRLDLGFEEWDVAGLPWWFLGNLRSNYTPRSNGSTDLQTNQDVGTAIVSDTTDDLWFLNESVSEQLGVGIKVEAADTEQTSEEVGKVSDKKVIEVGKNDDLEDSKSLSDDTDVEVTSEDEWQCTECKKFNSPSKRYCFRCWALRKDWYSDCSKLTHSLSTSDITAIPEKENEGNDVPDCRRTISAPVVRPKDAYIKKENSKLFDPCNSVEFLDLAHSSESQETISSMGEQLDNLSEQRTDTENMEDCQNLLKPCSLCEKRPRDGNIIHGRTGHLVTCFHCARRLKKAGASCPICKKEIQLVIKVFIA
# value in µM; strip the unit string

// solved cases for IC50 follow
{"COMPOUND": "CC(=O)N[C@@H](Cc1ccccc1)C(=O)N[C@]1(C)CCCCCCC=CCCC[C@@](C)(C(=O)N[C@@H](C)C(N)=O)NC(=O)[C@H](CC(C)C)NC(=O)C2(CC2)NC(=O)[C@H](CCC(=O)O)NC(=O)[C@H](Cc2c[nH]c3cc(Cl)ccc23)NC(=O)[C@H](Cc2ccc(O)cc2)NC(=O)[C@H](C)NC1=O [SP-128, Ac- F $r8 A Y 6clW E Ac3c L $ A -NH2] (Ac-F[R8]AY[Trp(6-Cl)]E[Ac3c]L[S5]A-NH2; staple 2-9)", "IC50, µM": 0.967}
{"COMPOUND": "CC(=O)N[C@@H](CC(C)C)C(=O)N[C@H](C(=O)N[C@@H](Cc1ccccc1)C(=O)N[C@]1(C)CCCCCCC=CCCC[C@@](C)(C(=O)N[C@@H](C)C(N)=O)NC(=O)[C@H](CC(C)C)NC(=O)[C@H](CCC(N)=O)NC(=O)[C@H](C)NC(=O)[C@H](Cc2c[nH]c3ccccc23)NC(=O)[C@H](Cc2ccc(O)cc2)NC(=O)[C@H](C)NC1=O)[C@@H](C)O [SP-194, Ac- L T F $r8 A Y W A Q L $ A -NH2] (Ac-LTF[R8]AYWAQL[S5]A-NH2; staple 4-11)", "IC50, µM": 0.463}
{"COMPOUND": "CC(=O)N[C@@H](CC(C)C)C(=O)N[C@H](C(=O)N[C@@H](Cc1ccccc1)C(=O)N[C@]1(C)CCCCCCC=CCCC[C@@](C)(C(=O)N[C@@H](CO)C(N)=O)NC(=O)[C@H](CC(C)C)NC(=O)[C@H](CCC(N)=O)NC(=O)[C@H](C)NC(=O)[C@H](Cc2c[nH]c3ccccc23)NC(=O)[C@H](Cc2ccc(O)cc2)NC(=O)[C@H](Cc2ccccc2)NC1=O)[C@@H](C)O [SP-267, Ac- L T F $r8 F Y W A Q L $ S -NH2] (Ac-LTF[R8]FYWAQL[S5]S-NH2; staple 4-11)", "IC50, µM": 0.318}
{"COMPOUND": "CC(=O)N[C@@H](CC(C)C)C(=O)N[C@H](C(=O)N[C@@H](Cc1ccccc1)C(=O)N[C@]1(C)CCCCCCC=CCCC[C@@](C)(C(=O)N[C@@H](CO)C(N)=O)NC(=O)[C@H](CC(C)C)NC(=O)[C@H](CCC(N)=O)NC(=O)[C@H](C)NC(=O)[C@H](Cc2c[nH]c3ccccc23)NC(=O)[C@H](Cc2ccc(O)cc2)NC(=O)[C@H](C)NC1=O)[C@@H](C)O [SP-191, Ac- L T F $r8 A Y W A Q L $ S -NH2] (Ac-LTF[R8]AYWAQL[S5]S-NH2; staple 4-11)", "IC50, µM": 0.097}

Exam item: Returns the measured IC50 for the input compound. Input: COCCOCCOCCOC(=O)N[C@@H](CC(C)C)C(=O)N[C@H](C(=O)N[C@@H](Cc1ccccc1)C(=O)N[C@]1(C)CCCCCCC=CCCC[C@@](C)(C(=O)N[C@@H](CO)C(N)=O)NC(=O)[C@H](CC(C)C)NC(=O)[C@H](CCC(N)=O)NC(=O)[C@H](C)NC(=O)[C@H](Cc2c[nH]c3ccccc23)NC(=O)[C@H](Cc2ccc(O)cc2)NC(=O)[C@H](C)NC1=O)[C@@H](C)O [SP-580, mdPEG3-L T F $r8 A Y W A Q L $ S -NH2] (X1-LTF[R8]AYWAQL[S5]S-NH2; staple 4-11)
Marked response: 0.195

----------
- METHOD NOTES: circular dichroism
- TEST CONTEXT: aqueous, '0% TFE' (buffer not stated; general: 50 mM potassium phosphate pH 7 or water); pH ns; ns °C; 25-50 uM (general text)
Numbered stars: 1 amine (or outer) side, 2 acyl side, 3 side chain; on linkers, the order of the positions; unused ones are H or OH. Square brackets hold non-standard residues; d marks the D form. Peptide text beside a SMILES is read from it. X3 = C=CCCCC(CCCC=C)(N[*:1])C(=O)[*:2]; S8 = C=CCCCCCC[C@](C)(N)C(=O)O; S5 = C=CCCC[C@](C)(N)C(=O)O
MEASURE NAME: helicity (%)
# value in %; strip the unit string

Exam item: Returns the measured helicity for the input molecule. Input: C=CCCCCCC[C@](C)(NC(=O)[C@H](CC(C)C)NC(=O)[C@H](CC(C)C)NC(=O)[C@H](CCCNC(=N)N)NC(=O)[C@H](Cc1c[nH]c2ccccc12)NC(=O)[C@H](CC(C)C)NC(=O)[C@H](CC(N)=O)NC(=O)C(CCCC=C)(CCCC=C)NC(=O)[C@H](Cc1ccccc1)NC(=O)[C@@H](NC(=O)[C@H](CCC(N)=O)NC(=O)[C@](C)(CCCC=C)NC(=O)[C@H](CO)NC(=O)[C@H](CCC(N)=O)NC(C)=O)[C@@H](C)O)C(=O)N[C@@H](CCC(N)=O)C(=O)N[C@@H](CC(N)=O)C(N)=O (Ac-QS[S5]QTF[X3]NLWRLL[S8]QN-NH2)
Marked response: 99

----------
In this section, each of the compounds is paired with its reported helicity.
- METHOD NOTES: circular dichroism
- TEST CONTEXT: aqueous, '0% TFE' (buffer not stated; general: 50 mM potassium phosphate pH 7 or water); pH ns; ns °C; 25-50 uM (general text)
Bridge positions count the residues as written; N and C are the ends. Square brackets hold non-standard residues; d marks the D form. Peptide text beside a SMILES is read from it. R8 = C=CCCCCCC[C@@](C)(N)C(=O)O; S5 = C=CCCC[C@](C)(N)C(=O)O
# value in %; strip the unit string

Exam item: Returns the measured helicity for the input compound. Input: CC(=O)N[C@@H](CCC(N)=O)C(=O)N[C@@H](CO)C(=O)N[C@@H](CCC(N)=O)C(=O)N[C@@H](CCC(N)=O)C(=O)N[C@H](C(=O)N[C@@H](Cc1ccccc1)C(=O)N[C@]1(C)CCCCCCC=CCCC[C@@](C)(C(=O)N[C@@H](CCC(N)=O)C(N)=O)NC(=O)[C@H](CC(C)C)NC(=O)[C@H](CC(C)C)NC(=O)[C@H](CCCNC(=N)N)NC(=O)[C@H](Cc2c[nH]c3ccccc23)NC(=O)[C@H](CC(C)C)NC(=O)[C@H](CC(N)=O)NC1=O)[C@@H](C)O (Ac-QSQQTF[R8]NLWRLL[S5]Q-NH2; staple 7-14)
Marked response: 77.8

Exam item: Moving on to CC(=O)N[C@]1(C)CCCCCCCCCCC[C@@](C)(C(=O)N[C@@H](CC(C)C)C(=O)N[C@@H](Cc2c[nH]c3ccccc23)C(=O)N[C@@H](CCCNC(=N)N)C(=O)N[C@@H](CC(C)C)C(=O)N[C@@H](CC(C)C)C(=O)NC(C)(C)C(=O)N[C@@H](CCC(N)=O)C(=O)N[C@@H](CC(N)=O)C(N)=O)NC(=O)[C@H](CO)NC(=O)[C@H](Cc2ccccc2)NC(=O)[C@H]([C@@H](C)O)NC(=O)[C@H](CCC(N)=O)NC(=O)[C@H](CCC(N)=O)NC(=O)[C@H](CO)NC1=O
Marked response: 66.7

Exam item: Moving on to CC(=O)N[C@@H](CCC(N)=O)C(=O)N[C@@H](CO)C(=O)N[C@@H](CCC(N)=O)C(=O)N[C@@H](CCC(N)=O)C(=O)N[C@H](C(=O)N[C@@H](Cc1ccccc1)C(=O)N[C@]1(C)CCCCCCCCCCC[C@@](C)(C(=O)N[C@@H](CCC(N)=O)C(=O)N[C@@H](CC(N)=O)C(N)=O)NC(=O)[C@H](CC(C)C)NC(=O)[C@H](CC(C)C)NC(=O)[C@H](CCCNC(=N)N)NC(=O)[C@](C)(Cc2c[nH]c3cc(Cl)ccc23)NC(=O)[C@H](CC(C)C)NC(=O)[C@H](CC(N)=O)NC1=O)[C@@H](C)O
Marked response: 62.4
